biological target: Mu-type opioid receptor (Mus musculus); test: Displacement of [3H]DAMGO from mouse spinal cord MOP measured after 60 mins by liquid scintillation counter analysis; type: tissue-based
Sequence (P42866 whole entry): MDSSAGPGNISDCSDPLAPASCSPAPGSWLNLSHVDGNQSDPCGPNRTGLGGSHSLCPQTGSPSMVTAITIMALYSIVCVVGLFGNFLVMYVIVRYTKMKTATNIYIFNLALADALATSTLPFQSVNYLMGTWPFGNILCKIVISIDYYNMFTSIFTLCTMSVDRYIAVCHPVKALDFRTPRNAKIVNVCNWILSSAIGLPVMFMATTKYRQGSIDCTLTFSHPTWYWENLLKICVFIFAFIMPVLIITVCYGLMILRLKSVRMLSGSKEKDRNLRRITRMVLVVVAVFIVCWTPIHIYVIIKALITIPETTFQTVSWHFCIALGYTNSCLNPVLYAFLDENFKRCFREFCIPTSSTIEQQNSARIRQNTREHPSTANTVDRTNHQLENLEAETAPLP
pKi: −log10 of the molar value.
List of pKi values.
Observation type: pKi

> print(dat)
                              smiles.record  observation.type  endpoint.result
1  N=C(N)NCCC[C@@H](NC(=O)[C@H](Cc1ccc(O)cc1)NC(=N)N)C(=O)N[C@@H](Cc1ccccc1)C(=O)NCCC(=O)O               pKi             7.89
2  CN(CCC(=O)O)C(=O)[C@H](Cc1ccccc1)NC(=O)[C@@H](CCCNC(=N)N)NC(=O)[C@H](Cc1ccc(O)cc1)NC(=N)N               pKi             7.89
